Reference source for all entries: ChEMBL document CHEMBL1155985

Experiment: Stability in buffer at pH 7.4 assessed as remaining compound at 10 mg/ml after 8 hrs
Format: physicochemical
Conditions: read-out: Activity

# mol smiles, measure unit, remaining at 8 h, 10 mg/ml
data = [
    ("C=C[C@]1(C)C[C@@H](OC(=O)NC(=O)c2ccc(OC)cc2)[C@]2(C)[C@H](C)CC[C@]3(CCC(=O)[C@@H]32)[C@@H](C)[C@@H]1OP(=O)([O-])[O-].[Na+].[Na+]", "%", 100),
    ("CC[C@]1(C)C[C@@H](OC(=O)NC(=O)c2ccc(OP(=O)([O-])[O-])cc2)[C@]2(C)[C@H](C)CC[C@]3(CCC(=O)[C@@H]32)[C@@H](C)[C@@H]1O.[Na+].[Na+]", "%", 100),
    ("CC[C@]1(C)C[C@@H](OC(=O)NC(=O)c2ccc(O)cc2)[C@]2(C)[C@H](C)CC[C@]3(CCC(=O)[C@@H]32)[C@@H](C)[C@@H]1OP(=O)([O-])[O-].[Na+].[Na+]", "%", 100),
]
